Data provenance: patent US7855205B2

# System: A375 malignant melanoma
# measurement.description: Inhibition of cell proliferation (14C-thymidine incorporation), A375
# Assay type: cell-based, human
# particulars: Homo sapiens, A-375
Answer each item with its documented IC50.
Expressed in µM, but write only the number.

Hi! What's the reported IC50 for CCNCCc1ccc(Nc2nccc(-c3c[nH]c4ncccc34)n2)cc1 [Cpd 26] on A375 malignant melanoma?
0.0222

Could you do the same for Clc1ccccc1Nc1nccc(-c2c[nH]c3ncccc23)n1 [Cpd 12] , please?
0.1

Could you do the same for OCCn1cc(-c2ccnc(N[C@H]3CC[C@H](O)CC3)n2)c2cccnc21 [Cpd 72] , please?
0.165

Could you do the same for OCCn1cc(-c2ccnc(NC3CCCCC3)n2)c2cccnc21 [Cpd 70] , please?
5.93

Could you do the same for N[C@H]1CC[C@H](Nc2nccc(-c3c[nH]c4ncccc34)n2)CC1 [Cpd 42] , please?
0.000743

Could you do the same for c1cnc2[nH]cc(-c3ccnc(NCC4CCCCC4)n3)c2c1 [Cpd 16] , please?
0.604

Could you do the same for CNCC[C@H]1CC[C@H](Nc2nccc(-c3c[nH]c4ncccc34)n2)CC1 [Cpd 78] , please?
0.00225

Could you do the same for Cn1cc(-c2ccnc(N[C@H]3CC[C@H](O)CC3)n2)c2cccnc21 [Cpd 71] , please?
7.15

Could you do the same for c1cnc2[nH]cc(-c3ccnc(NC4CCCCCC4)n3)c2c1 [Cpd 15] , please?
0.00467

Could you do the same for OCCOc1ccc(Nc2nccc(-c3c[nH]c4ncccc34)n2)cc1 [Cpd 4] , please?
0.061

* * *

Answer each item with its documented IC50.
# target.under.test: Aurora-A (Mus musculus, UniProt P97477)
# Construct: made in house; host or cells: sf9 insect cells
# Sequence (P97477 1-395): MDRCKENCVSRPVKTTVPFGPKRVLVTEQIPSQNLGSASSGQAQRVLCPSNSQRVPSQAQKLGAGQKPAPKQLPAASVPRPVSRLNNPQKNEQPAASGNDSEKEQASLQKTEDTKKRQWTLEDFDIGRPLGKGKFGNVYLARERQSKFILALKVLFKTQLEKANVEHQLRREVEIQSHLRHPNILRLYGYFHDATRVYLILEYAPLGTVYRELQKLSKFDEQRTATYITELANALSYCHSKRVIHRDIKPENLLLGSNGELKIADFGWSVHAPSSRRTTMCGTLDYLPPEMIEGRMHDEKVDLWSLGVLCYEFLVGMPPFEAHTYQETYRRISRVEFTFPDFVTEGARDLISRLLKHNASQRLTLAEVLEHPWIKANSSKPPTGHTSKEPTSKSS
# measurement.description: Aurora-A Screening Assay
# Format: biochemical, murine
# particulars: 33P-γ-ATP incorporation, 10 μM ATP
Expressed in µM, but write only the number.

For the compound shown here, Cc1cc(CCN2CCN(C)CC2)ccc1Nc1nccc(-c2c[nH]c3ncccc23)n1 [Cpd 51] , give the reported IC50.
0.895

Could you do the same for CN1CCN(CCc2ccc(Nc3nccc(-c4c[nH]c5ncccc45)n3)cc2)CC1 [Cpd 21] , please?
0.197

Could you do the same for Cc1cc(CCN2CCOCC2)ccc1Nc1nccc(-c2c[nH]c3ncccc23)n1 [Cpd 49] , please?
0.333

Could you do the same for Nc1ccc(Nc2nccc(-c3c[nH]c4ncccc34)n2)cc1 [Cpd 37] , please?
0.386

Could you do the same for Oc1ccc(Nc2nccc(-c3c[nH]c4ncccc34)n2)cc1 [Cpd 39] , please?
0.735

Could you do the same for CC(=O)n1cc(-c2ccnc(NC3CCCCC3)n2)c2cccnc21 [Cpd 68] , please?
0.32

Could you do the same for FC(F)(F)c1ccccc1Nc1nccc(-c2c[nH]c3ncccc23)n1 [Cpd 29] , please?
1

Could you do the same for CS(=O)(=O)n1cc(-c2ccnc(NC3CCCCC3)n2)c2cccnc21 [Cpd 67] , please?
2.36

Could you do the same for COc1ccc(Nc2nccc(-c3c[nH]c4ncccc34)n2)c(C)c1 [Cpd 27] , please?
0.357

Could you do the same for c1ccc(Nc2nccc(-c3c[nH]c4ncccc34)n2)cc1 [Cpd 3] , please?
0.159

Could you do the same for CN(C)c1ccc(Nc2nccc(-c3c[nH]c4ncccc34)n2)cc1 [Cpd 38] , please?
0.112

Could you do the same for COc1cccc(Nc2nccc(-c3c[nH]c4ncccc34)n2)c1 [Cpd 6] , please?
0.1

Could you do the same for Oc1ccccc1Nc1nccc(-c2c[nH]c3ncccc23)n1 [Cpd 30] , please?
0.289

Could you do the same for CC(=O)NC1CCN(c2nccc(-c3c[nH]c4ncccc34)n2)CC1 [Cpd 63] , please?
4.19

Could you do the same for c1cnc2[nH]cc(-c3ccnc(N[C@H]4CC5CCC4C5)n3)c2c1 (some centres unmarked) [Cpd 59] , please?
0.437

Could you do the same for CCc1ccccc1Nc1nccc(-c2c[nH]c3ncccc23)n1 [Cpd 32] , please?
0.396

Could you do the same for CNCCc1ccc(Nc2nccc(-c3c[nH]c4ncccc34)n2)cc1 [Cpd 25] , please?
0.182

Could you do the same for O=S(=O)(c1ccccc1)n1cc(-c2ccnc(N[C@H]3CC[C@H](O)CC3)n2)c2cccnc21 [Cpd 75] , please?
10

Could you do the same for Clc1ccccc1Nc1nccc(-c2c[nH]c3ncccc23)n1 [Cpd 12] , please?
0.287

Could you do the same for Cc1cc(CCO)ccc1Nc1nccc(-c2c[nH]c3ncccc23)n1 [Cpd 44] , please?
0.142
